# Organism: Homo sapiens
# Assay overview: Selectivity for human ERalpha over human ERbeta
Readout type: Ratio

| Test smiles | Ratio |
| --- | --- |
| CS(=O)(=O)c1ccc(-c2sc3cc(O)ccc3c2Oc2ccc(OCCN3CCCCC3)cc2)cc1 | 79 |
| Nc1ccc(-c2sc3cc(O)ccc3c2Oc2ccc(OCCN3CCCCC3)cc2)cc1 | 2.8 |
| Oc1ccc2c(Oc3ccc(OCCN4CCCCC4)cc3)c(-c3ccc(F)cc3)sc2c1 | 1.6 |

A: Oc1ccc2c(Oc3ccc(OCCN4CCCCC4)cc3)c(-c3ccccc3)sc2c1
B: O=C(CCl)Nc1ccc(-c2sc3cc(O)ccc3c2Oc2ccc(OCCN3CCCCC3)cc2)cc1
C: Oc1ccc2c(Oc3ccc(OCCN4CCCCC4)cc3)c(-c3ccc(Br)cc3)sc2c1
*Q* Arrange the 3 entries by Ratio so the values rise. List the labels according to the requested ordering.
*A* A, C, B
(A: 1.7, C: 2.8, B: 4.3)
